# experimental system: Sigma receptor (Cavia porcellus)
# Construct: Brain membranes were prepared by the method of Tam; from tissue; host or cells: guinea pig whole brain membranes
# Sequence (Q60492 whole entry): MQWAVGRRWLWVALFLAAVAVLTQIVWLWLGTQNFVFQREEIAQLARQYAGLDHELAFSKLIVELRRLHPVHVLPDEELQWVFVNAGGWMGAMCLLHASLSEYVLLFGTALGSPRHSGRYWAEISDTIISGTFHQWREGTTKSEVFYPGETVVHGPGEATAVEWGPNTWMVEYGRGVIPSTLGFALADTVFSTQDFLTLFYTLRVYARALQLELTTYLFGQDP
# test summary: Sigma Receptor Binding Assay
# Format: guinea pig (male Hartley), brain membranes
# assay conditions: 1 nM (+)-[3H]SKF 10,047, guinea pig brain membranes, pH 7.4, 45 min room temperature; read-out: Receptor Binding Affinity Sigma (Ki class)
pKi: −log10 of the molar value.
Reported values of pKi for individual entries

Solved cases (3 shown):
{"molecule": "O=C1C2C3C=CC(C4CC34)C2C(=O)N1CC1CCN(CCc2ccccc2)CC1 (centres unmarked)", "pKi": "7.52 to 9.00"}
{"molecule": "O=C1[C@H]2CCCC[C@H]2C(=O)N1C1CCN(Cc2ccccc2)CC1", "pKi": "7.52 to 9.00"}
{"molecule": "CC1C2=C(CCCC2)C(=O)N1CC1CCN(CCc2ccccc2)CC1 (centres unmarked)", "pKi": "6.30 to 7.00"}

Prompt: Which value of pKi has been reported for `O=C1[C@H]2CCCC[C@H]2C(=O)N1CC1CCN(CCc2ccc(F)cc2)CC1` in the records?
Response: 7.00 to 7.51

Prompt: Given the entry `O=C1c2ccccc2C(=O)N1CC1CCN(Cc2cccc(F)c2)CC1` , report its measured pKi.
Response: 7.00 to 7.51

Prompt: Give the measured pKi of `CC1(CN2C(=O)[C@H]3CCCC[C@H]3C2=O)CCN(CCc2ccccc2)CC1` .
Response: 7.52 to 9.00

Prompt: Look up pKi: `O=C1[C@H]2CCCC[C@H]2C(=O)N1CC1CCN(CCc2ccc([N+](=O)[O-])cc2)CC1`
Response: 7.52 to 9.00

Prompt: Quick check: pKi of `O=C1[C@H]2CCCC[C@H]2C(=O)N1CC1=CCN(CCc2ccccc2)CC1` ?
Response: 7.52 to 9.00

Prompt: Fill in the blank: the reported pKi of `O=C1c2ccccc2C(=O)N1CCC1=CCN(CCc2ccccc2)CC1` is ____.
Response: 7.52 to 9.00

Prompt: So what does the record say about pKi for `O=C1[C@H]2CCCC[C@H]2C(=O)N1CC1CCN(CCc2ccc(C(F)(F)F)cc2)CC1` ?
Response: 6.30 to 7.00

Prompt: Consider the molecule O=C1C2C3CC(c4ccccc43)C2C(=O)N1CC1CCN(CCc2ccccc2)CC1 (centres unmarked) and give its measured pKi.
Response: 7.52 to 9.00

Prompt: Given the molecule O=C1C2=C(CCCC2)C(c2cccs2)N1CC1CCN(CCc2ccccc2)CC1 (centres unmarked) , what is its reported pKi?
Response: 7.52 to 9.00

Prompt: Please give the measured pKi for this molecule: `O=C1c2ccccc2C(=O)N1CCCC1CCN(CCc2ccccc2)CC1`
Response: 7.52 to 9.00

* * *

Quick list: pKi per entry.
# experimental system: Sigma receptor (Cavia porcellus)
# Construct: Brain membranes were prepared by the method of Tam; from tissue; host or cells: guinea pig whole brain membranes
# test summary: Sigma Receptor Binding Assay
# Format: guinea pig (male Hartley), brain membranes
pKi: −log10 of the molar value.

{"molecule": "O=C1[C@H]2CCCC[C@H]2C(=O)N1CC1(c2ccc(Cl)cc2)CCN(CCc2ccccc2)CC1", "recorded value": "7.52 to 9.00"}

Field: next molecule
Prompt: Using the record for `O=C1[C@H]2CCCC[C@H]2C(=O)N1CC1(c2cccc(Cl)c2)CCN(CCc2ccccc2)CC1` , report its pKi.
Response: 7.52 to 9.00
